System: MOLT-4 leukemia
Assay: NCI tumour cell line growth inhibition, 48 h
OUTCOME_MEASURE: TGI

Exercise: Determine its reported TGI: O=C(O)Cn1c2c(c3c(O)cccc31)C(=O)c1ccccc1-2
Solution: > 100 µM

Exercise: Determine its reported TGI: Cc1nnc(-c2ccc(C)c(-c3ccc(C(=O)NCc4ccc(Cl)cc4)cc3)c2)o1
Solution: > 25 µM

Exercise: Determine its reported TGI: Cc1ccc(-c2cc(-c3c(C)nn(C)c(=O)c3N)[nH]n2)cc1
Solution: > 100 µM

Exercise: Determine its reported TGI: Cc1ccc(C2CC(c3cccc(Nc4ccncc4)c3)=NN2c2ccccc2)cc1 (stereo unspecified)
Solution: 4.64 µM

Exercise: Determine its reported TGI: COC(=O)c1c(C(=O)OC)c2c3ccccc3n(C)c2c2c1c1ccccc1n2C
Solution: > 100 µM

Exercise: Determine its reported TGI: COC(=O)C1C(C(=O)OC)C1(Br)CBr (stereo unspecified)
Solution: 21 µM

* * *

Field: GI50. Provide a value for each of the compounds that follow.
Test system: UO-31 renal
Test: NCI tumour cell line growth inhibition, 48 h

Exercise: Determine its reported GI50: C=C1CCC2C3(C)COC(c4ccc(Cl)cc4)OC3CCC2(C)C1/C=C/C1=CCOC1=O (centres undefined)
Solution: > 100 µM

Exercise: Determine its reported GI50: Cc1cn2c(/C=C3/C(=O)Nc4ccc(F)cc43)c(C)nc2s1
Solution: 6.62 µM

Exercise: Determine its reported GI50: COc1cc(-c2ccc(NC(=O)NC3CC3)c(OC)c2)ccc1NC(=O)NC1CC1
Solution: 5.27 µM

Exercise: Determine its reported GI50: COc1ccc(CNc2cnc3cc(N)cc(N)c3n2)cc1
Solution: 16.3 µM

Exercise: Determine its reported GI50: CN1CCN(Cc2ccc(NC(=O)c3cncc(C#Cc4cnn5ccccc45)c3)cc2C(F)(F)F)CC1
Solution: 1.17 µM

Exercise: Determine its reported GI50: CCC[CH2][Sn]([CH2]CCC)([O]C(=O)c1cc(F)cc(F)c1)[O][Sn]([CH2]CCC)([CH2]CCC)[O]C(=O)c1cc(F)cc(F)c1
Solution: 1.66 µM

Exercise: Determine its reported GI50: O=C(Nc1cccnc1)c1ccc2ccc3ccc(C(=O)Nc4cccnc4)nc3c2n1
Solution: > 100 µM

Exercise: Determine its reported GI50: CCc1nc2cc(/C=C/C(=O)NO)ccc2c(=O)n1CCc1ccc(F)cc1
Solution: 1.41 µM

Exercise: Determine its reported GI50: CCOc1c(C#N)c2c(N)ncnc2n1C1OC(CO)C(O)C1O (centres undefined)
Solution: 2.86 µM

* * *

Field: GI50. Provide a value for each of the compounds that follow.
Test system: OVCAR-8 ovarian
Test: NCI tumour cell line growth inhibition, 48 h

Exercise: Determine its reported GI50: CCOC(=O)c1csc(NC(=O)COc2cccc(/C=C3\CSc4ccccc4C3=O)c2)n1
Solution: 1.59 µM

Exercise: Determine its reported GI50: Cc1nnc(-c2ccc(C)c(-c3ccc(C(=O)NCc4ccc(Cl)cc4)cc3)c2)o1
Solution: > 25 µM

Exercise: Determine its reported GI50: COc1ccc(/C=C2\CC(C)CC3C2=NN(c2ccccc2)C3c2ccc(OC)c(OC)c2)cc1OC (stereo not drawn)
Solution: 6.78 µM

Exercise: Determine its reported GI50: CO[C@@H]1[C@H]2[C@@H](C)c3ccoc3C[C@@H]2[C@@]2(C)CC[C@H](OC(=O)c3ccccc3)[C@](C)(C(=O)O)[C@]2(O)[C@@H]1OC(=O)c1ccccc1
Solution: 14.3 µM

Exercise: Determine its reported GI50: CC[C@@H](C)Nc1cc(C(=O)NC2CC3CCC(C2)N3c2ccc(C(=O)C3CC3)cn2)c(C)cc1C(N)=O (stereo partly drawn)
Solution: 0.047 µM

Exercise: Determine its reported GI50: COc1cc2ncn(-c3cc(OCc4ccccc4C(F)(F)F)c(C(C)=O)s3)c2cc1OC
Solution: > 25 µM

Exercise: Determine its reported GI50: O=C(Nc1ccc2c(c1)OCO2)C(=O)c1c[nH]c2cc(F)ccc12
Solution: 3.89 µM

Exercise: Determine its reported GI50: CCCCCCN(C)Cc1ccc(OCCOc2ccc(CN(C)CCCCCC)cc2)cc1
Solution: 1.41 µM

* * *

Field: TGI. Provide a value for each of the compounds that follow.
System: SK-MEL-5 melanoma
Assay: NCI tumour cell line growth inhibition, 48 h

Exercise: Determine its reported TGI: COCCOCCOCCOc1ccc(C(C#N)N(CCc2ccccc2)C(=O)c2cc(C(=O)N(CCc3ccccc3)C(C#N)c3ccc(OCCOCCOCCOC)cc3)cc(C(=O)N(CCc3ccccc3)C(C#N)c3ccc(OCCOCCOCCOC)cc3)c2)cc1 (stereo not given)
Solution: > 100 µM

Exercise: Determine its reported TGI: O=c1c(-c2ccc(O)cc2)coc2cc(OC3OC(CO)C(O)C(O)C3O)cc(O)c12 (stereo not given)
Solution: > 100 µM

Exercise: Determine its reported TGI: CC1=NN(C(=O)c2ccncc2)C(=O)C1N=Nc1ccc2ccccc2c1 (stereo not given)
Solution: > 100 µM

Exercise: Determine its reported TGI: C[C@]12CC/C(=N\OCCN3CCCCC3)C=C1CCC1C2CC[C@@]2(C)C1CC[C@]2(C)O (stereo not given in full)
Solution: 32.4 µM

Exercise: Determine its reported TGI: CCCCCCCCCCCCCC(=O)OCC1OC(n2cc(F)c(=O)[nH]c2=O)C(N)C(OC(=O)CCCCCCCCCCCCC)C1O (stereo not given)
Solution: > 100 µM

Exercise: Determine its reported TGI: NNC(=S)Nc1cccc(Cl)c1
Solution: > 100 µM

Exercise: Determine its reported TGI: Cc1cc(C)n(C(=O)CSc2nnc(SCC(=O)n3nc(C)cc3C)s2)n1
Solution: > 100 µM

Exercise: Determine its reported TGI: CCOC(=O)c1[nH]c2nc(SC)nc(Nc3ccccc3Cl)c2c1N
Solution: 32.7 µM

Exercise: Determine its reported TGI: N#Cc1c(N)c(C#N)c2c(c1-c1ccc(Cl)cc1)COc1ccccc1-2
Solution: 71.6 µM

Exercise: Determine its reported TGI: C[C@@H]1CC[C@@H]2[C@@H](C)C[C@H]3[C@@H]4C(C)(C)OC(=O)[C@]4(C)C(=O)[C@@]23C1=O
Solution: > 100 µM

Exercise: Determine its reported TGI: CC(Oc1ccccc1Cl)C(=O)NN1C(=O)CSC1c1ccc(Cl)cc1 (stereo not given)
Solution: 31.7 µM

Exercise: Determine its reported TGI: COc1ccc2nc3n(c2c1)C(c1c(Cl)cccc1Cl)SC3 (stereo not given)
Solution: > 100 µM

Exercise: Determine its reported TGI: COc1ccccc1NC(=S)Nc1cc(C)ccn1
Solution: > 100 µM

Exercise: Determine its reported TGI: CC(=O)O[C@H]1C(=O)[C@@]2(C)[C@H]([C@H](OC(=O)c3ccccc3)[C@@]3(O)C[C@H](O)C(C)=C1C3(C)C)[C@]1(OC(C)=O)CO[C@@H]1C[C@@H]2O
Solution: > 100 µM

Exercise: Determine its reported TGI: O=C(CCOS(=O)(=O)CF)N1CCN(C(=O)CCOS(=O)(=O)CF)CC1
Solution: > 100 µM

Exercise: Determine its reported TGI: COC(=O)c1c2c(cc3c1CC1(Cc4cc5c(cc4C1)CCC5)C3)CCC2
Solution: > 100 µM

Exercise: Determine its reported TGI: CN(O)C(=S)c1ccccc1
Solution: 16.3 µM

Exercise: Determine its reported TGI: CC(C)CN(CC#N)CC(C)C
Solution: > 100 µM

Exercise: Determine its reported TGI: C[C@]12CC[C@@H]3c4ccc(OCCN5CCCC5)cc4CC[C@H]3[C@@H]1CCC2=O
Solution: 30 µM

Exercise: Determine its reported TGI: C=CCc1cccc(/C=N\N=C(/N)NO)c1O
Solution: 20.7 µM

* * *

Tested on: NCI-H522 lung
Assay: NCI tumour cell line growth inhibition, 48 h
Field: TGI. Provide a value for each of the molecules that follow.
Please state the figure in µM; there is no need to write the unit.

Exercise: Determine its reported TGI: O=C1[C@H](Cl)[C@H]2c3cc4ccccc4nc3Oc3ccccc3N12
Solution: 88

Exercise: Determine its reported TGI: COCOCC[C@@H]1CC=CC(NC(=O)OCc2ccccc2)C1/C=C/C(=O)CCC1OCCO1 (some centres undefined)
Solution: 34.7

Exercise: Determine its reported TGI: N#Cc1c(N)nc(N2CCSCC2)c(C#N)c1-c1ccc(O)cc1
Solution: 52.7

Exercise: Determine its reported TGI: C=CCc1cccc(/C=N\N=C(/N)NO)c1O
Solution: 10.6

* * *

Field: TGI. Provide a value for each of the molecules that follow.
Test system: A498 renal
Assay: NCI tumour cell line growth inhibition, 48 h
Where a SMILES comes first, the peptide text is derived from it. [ ]: non-standard residue; d: D form. 2Nal = N[CH](Cc1ccc2ccccc2c1)C(=O)O

Exercise: Determine its reported TGI: CCN(CC)CC(C)(C)C(=O)/C=C/c1ccc(/C=C/C(=O)C(C)(C)CN(CC)CC)cc1
Solution: 3.49 µM

Exercise: Determine its reported TGI: O=C(Nc1nc(-c2ccc(Cl)cc2)nc2c1sc(=S)n2-c1ccccc1)C(F)(F)F
Solution: 7.8 µM

Exercise: Determine its reported TGI: CC[C@@H](C)Nc1cc(C(=O)NC2CC3CCC(C2)N3c2ccc(C(=O)C3CC3)cn2)c(C)cc1C(N)=O (stereo partly drawn)
Solution: > 100 µM

Exercise: Determine its reported TGI: Cc1c(-c2ccccc2)c(C#N)c2nnn(-c3cccc(Cl)c3)c(=O)n12
Solution: 98.5 µM

Exercise: Determine its reported TGI: Cc1cc(C)n(CN(Cn2nc(C)cc2C)c2ccccc2)n1
Solution: > 100 µM

Exercise: Determine its reported TGI: CC(C)C(NC(=O)C(CCCCN)NC(=O)C(Cc1c[nH]c2ccccc12)NC(=O)C(Cc1ccc(O)cc1)NC(=O)C(CS)NC(=O)C(N)Cc1ccc2ccccc2c1)C(=O)NC(CS)C(=O)NC(C(N)=O)C(C)O (stereo not drawn) (H-[2Nal]CYWKVCT-NH2; configuration not given here)
Solution: > 100 µM

Exercise: Determine its reported TGI: COc1cccc2cc(C(=O)Nc3ccccn3)c(=N)oc12
Solution: > 100 µM

Exercise: Determine its reported TGI: c1ccc(C2=Nc3cccc4cccc(c34)N2)cc1
Solution: > 100 µM
